- Test system: MOLT-4 leukemia
- assay_summary: NCI tumour cell line growth inhibition, 48 h
// reported TGI for each item listed
Number only, in µM; omit the unit.

>>> numeric_value("Clc1ncnc2c1nc(C#Cc1ccccc1)n2C1CCCCO1 (centres undefined)")
8.32

As a next step, examine the compound that follows.
**Query** Which measured TGI value corresponds to `CCOc1ccccc1N=Cc1c2ccccc2cc2ccccc12` ?
**Result** 53.3

====

- Tested on: CCRF-CEM leukemia
- assay_summary: NCI tumour cell line growth inhibition, 48 h
measure_name: TGI (µM)
Number only, in µM; omit the unit.

# example entries with known answers
>>> numeric_value("C=C1CC(O)C2C(=C)C(=O)OC2C2C(C)C(=O)CC12 (stereo unspecified)")
41.4
>>> numeric_value("CCCCOP1(=O)CC(C)=C(Cl)C(C)(OC)C1 (stereo unspecified)")
98.7
>>> numeric_value("Cc1ccc([N+]2=NC(c3ccccc3)=NN(c3ccccc3)C2)cc1")
79.9
>>> numeric_value("O=C1Nc2ccccc2SC1=C(C(=O)c1ccccc1)C(=O)c1ccccc1")
77.4
>>> numeric_value("C[C@@H](C[C@H](CCO)c1ccccc1)c1ccc2ccccc2c1")
1.51
>>> numeric_value("C[C@@H]1Cc2c(ccc3[nH]ncc23)[C@@H](c2ccc(NC3CN(CCCF)C3)cn2)N1CC(F)(F)F")
67.3
>>> numeric_value("CCCCCCCCCCCCCCCCCCNc1nc(=O)n(C2CC(OP(=O)(O)OCC3OC(n4cc(F)c(=O)[nH]c4=O)CC3O)C(CO)O2)cc1F (stereo unspecified)")
42.7
>>> numeric_value("CC(=O)OC1=C(CC(C)(C)C)C(=O)c2ccccc2C1=O")
55.6

**Query** Which measured TGI value corresponds to `COC(=O)C#CC(N)=O` ?
**Result** 36.4

**Query** Now consider `COC(=O)/C=C\C(C#N)(C#N)N=Cc1ccc(Br)cc1` and answer again.
**Result** 5.91
